Measurement Kind: glass transition temperature (°C)
Give just the numeric value; °C need not be written.

Answered cases to consult:
Molecule | Value Unit | Value Reported
*CC(*)OC(=O)OCC(Cl)(Cl)Cl (repeat unit) | °C | 74.00
*Oc1ccc(C(=O)c2ccc(*)cc2)cc1 (repeat unit) | °C | 154.00
*c1cccc(-c2nc3cc4nc(*)c(-c5ccccc5)nc4cc3nc2-c2ccccc2)c1 (repeat unit) | °C | 365.00
*CC(*)OC(=O)c1cccc(C)c1 (repeat unit) | °C | 49.00
*CC(*)CCCCCC (repeat unit) | °C | -54.58
*C(=O)c1ccc2c(c1)C(=O)N(c1ccc(CP(=O)(OCCCl)OCCCl)c(N3C(=O)c4ccc(*)cc4C3=O)c1)C2=O (repeat unit) | °C | 261.00

Proceed to the following item.
[ask] # glass transition temperature lookup, item *C(=O)Nc1ccc(Oc2ccc(S(=O)(=O)c3ccc(Oc4ccc(NC(=O)c5ccc6c(c5)C(=O)N(c5ccc(Oc7ccc8ccc(Oc9ccc(N%10C(=O)c%11ccc(*)cc%11C%10=O)cc9)cc8c7)cc5)C6=O)cc4)cc3)cc2)cc1 (repeat unit)
[reply] 274.00

* * *

glass transition temperature for assorted compounds
The reply should consist of the numeric value with the unit placed after it.

Answered cases to consult:
Compound | Value Reported
*c1ccc2c(c1)N(CC(CCCCCCCC)CCCCCCCCCC)C(=O)/C2=C1/C(=O)N(CC(CCCCCCCC)CCCCCCCCCC)c2cc(-c3ccc(-c4ccc(*)s4)s3)ccc21 (repeat unit) | 65.00 °C
*c1ccc2c(c1)C(CCCCCCCC)(CCCCCCCC)c1cc(-c3ccc(-c4ccc(-c5ccc(*)s5)c5nsnc45)s3)ccc1-2 (repeat unit) | 126.00 °C
*c1ccc2c(c1)C(CCCCCCCC)(CCCCCCCC)c1cc(-c3ccc(-c4ccc(*)s4)s3)ccc1-2 (repeat unit) | 102.00 °C

[ask] # glass transition temperature lookup, item *c1cc2c(s1)c1sc(-c3sc(-c4ccc(-c5cc(CCCCCC)c(*)s5)c5nsnc45)cc3CCCCCC)cc1n2CC(CC)CCCC (repeat unit)
[reply] 90.00 °C

[ask] # glass transition temperature lookup, item *c1ccc2c(c1)C(CCCCCCCC)(CCCCCCCC)c1cc(-c3ccc(-c4c(-c5ccccc5)c(-c5ccccc5)c(-c5ccc(*)s5)c5nc(-c6ccccc6)c(-c6ccccc6)nc45)s3)ccc1-2 (repeat unit)
[reply] 192.00 °C

* * *

glass transition temperature for assorted molecules
Give just the numeric value; °C need not be written.

Molecule | glass transition temperature, °C
*c1cc(N2C(=O)c3ccc(-c4ccc5c(c4)C(=O)N(*)C5=O)cc3C2=O)ccc1OCC(F)(F)C(F)(F)C(F)(F)C(F)(F)C(F)(F)C(F)(F)F (repeat unit) | 262.00
*Oc1cccc(S(=O)(=O)c2ccc(Oc3ccc4c(c3)C(=O)N(c3ccc(Oc5cccc(Oc6ccc(N7C(=O)c8ccc(*)cc8C7=O)cc6)c5)cc3)C4=O)cc2)c1 (repeat unit) | 194.00
*C(=O)c1ccc2c(c1)C(=O)N(c1ccc(Cc3cccc(N4C(=O)c5ccc(*)cc5C4=O)c3)cc1)C2=O (repeat unit) | 292.00
*C(=O)c1ccc2c(c1)C(=O)N(c1ccc(C(=O)Oc3ccc4ccccc4c3-c3c(OC(=O)c4ccc(N5C(=O)c6ccc(*)cc6C5=O)cc4)ccc4ccccc34)cc1)C2=O (repeat unit) | 273.50

[ask] # glass transition temperature lookup, item *c1cccc2c1C(=O)N(c1ccc(Cc3ccc(N4C(=O)c5cccc(*)c5C4=O)c(C)c3)cc1C)C2=O (repeat unit)
[reply] 299.50

[ask] # glass transition temperature lookup, item *C(=O)c1ccc2c(c1)C(=O)N(c1cccc(Oc3cccc(N4C(=O)c5ccc(*)cc5C4=O)c3)c1)C2=O (repeat unit)
[reply] 221.00

[ask] # glass transition temperature lookup, item *c1ccc2c(c1)C(=O)N(c1cccc(S(=O)(=O)c3cccc(N4C(=O)c5ccc(*)cc5C4=O)c3)c1)C2=O (repeat unit)
[reply] 260.00
